Target: T1, mouse SPNS2 (mouse, UniProt Q91VM4 1-549)
T1 sequence: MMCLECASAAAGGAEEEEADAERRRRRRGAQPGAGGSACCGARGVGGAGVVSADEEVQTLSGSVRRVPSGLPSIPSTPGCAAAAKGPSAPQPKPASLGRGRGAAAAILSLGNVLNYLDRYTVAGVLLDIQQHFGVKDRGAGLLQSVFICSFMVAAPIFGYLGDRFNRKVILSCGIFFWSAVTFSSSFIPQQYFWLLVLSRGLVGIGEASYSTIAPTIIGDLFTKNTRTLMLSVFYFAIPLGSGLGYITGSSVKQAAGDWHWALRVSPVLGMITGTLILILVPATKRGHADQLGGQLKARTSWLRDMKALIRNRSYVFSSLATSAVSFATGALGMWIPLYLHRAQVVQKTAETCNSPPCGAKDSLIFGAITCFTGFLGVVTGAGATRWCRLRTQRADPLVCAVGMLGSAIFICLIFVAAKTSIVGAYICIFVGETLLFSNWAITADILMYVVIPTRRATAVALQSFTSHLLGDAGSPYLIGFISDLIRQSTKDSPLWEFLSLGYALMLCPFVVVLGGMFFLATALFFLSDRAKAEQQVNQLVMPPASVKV
Assay: cell-based or functional assay
Attribute Measured: pIC50, S1P transport inhibition (LC-MS/MS of S1P)

Binder: 37-0511F (antibody, IgG2b, V domains shown) VH: EVHLQQSGAALVRPRASVKLSCKVSGDSISRYYVHFVKQRPGQGLEWIGRIDPEDDTTKYSEKFKNRATLTADASSDTASLILSGLTSDDTATYFCSTLTGLDYWGQGVMVTVSS VL: DIQMTQSPPVLSTSVGDRVTLRCKPSQNVHSKLDWYQQKHGEAPKLLIYYTHNLQTGIPSRFSGSGSGTDYTLTISSLQPEDVATYYCFQYYSGWTFGGGTKLEMKR
Reported Measurement: 7.8 pIC50 (M)
--
Binder: 64-0807A (antibody, IgG2b, V domains shown) VH: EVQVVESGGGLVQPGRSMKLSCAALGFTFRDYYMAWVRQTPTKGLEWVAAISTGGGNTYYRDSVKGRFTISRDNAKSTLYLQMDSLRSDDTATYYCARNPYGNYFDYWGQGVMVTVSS VL: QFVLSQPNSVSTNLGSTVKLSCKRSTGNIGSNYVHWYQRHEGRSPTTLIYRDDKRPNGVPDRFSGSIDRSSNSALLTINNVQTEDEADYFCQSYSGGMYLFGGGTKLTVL
Reported Measurement: 7.7 pIC50 (M)
--
Binder: 83-1110B (antibody, IgG2b, V domains shown) VH: EVQLQQSGPEFVRPGTSVKFSCKVSGGSITSYFIHFVKQRPGQGLEWIGKIDPEDDSTKYGEKFKNKATLTADTSSNTAFLKLSSLTSEDTAIYFCTTLTGLDYWGQGVMVTVSS VL: DIQMTQSPPVLSAAVGDRVTLSCKASRSLNKNLDWYQQKHGETPKLLIYHTHNLQTGIPSRFSGSGSDTDYTLTISSLQTEDVATYYCYQYHSGWTFGGGTRLELRR
Reported Measurement: 8.1 pIC50 (M)
--
Binder: 93-1310F (antibody, IgG2b, V domains shown) VH: EVQLVETGGGLVQPGSSLKLSCATSGFTFSDTWMSWVRQAPGKGLEWVALIKDKNSNYEANYAESVKGRFTISRDDSKRRVYLQMFTLRDQDTATYYCTSHEDFYYYSSYYFDYWGHGVMVTVSS VL: DIVLTQSPATLSVTPGESVSLSCRASQGISTSIHWYQQKSNGSPRLLIKYASQSISGIPSRFSGSGSGTDFTLRINRVESEDFSVYYCQQTYSLPLTFGSGTRLEIKR
Reported Measurement: 8.2 pIC50 (M)
